// data source = ChEMBL document CHEMBL1201862

test system: EKVX; experiment: NCI tumour cell line growth inhibition, 48 h
Active and inactive are the calls of the source. Rule as the data show it: active = GI50 up to about 1.1 µM and inactive = higher.
readout.type: GI50

Kindly note the recorded GI50 for CC(C)OC(=O)C1=C2c3ncccc3C(=O)N2[C@@H](Cl)[C@@H](Cl)[C@@H]1Cl , which is > 100 µM (inactive)

Kindly note the recorded GI50 for NC1=C(Br)C(=O)c2ncccc2C1=O , which is 1.61 µM (inactive)

Kindly note the recorded GI50 for COc1cc(C2SCC(=O)N2c2ccccc2Cl)cc(OC)c1OC (stereo not given) , which is > 100 µM (inactive)

Kindly note the recorded GI50 for CCOP1(=O)OCC2OC(n3cnc4c(N)ncnc43)C(O)C2O1.c1ccccc1 (stereo not given) , which is > 100 µM (inactive)

Kindly note the recorded GI50 for COC[C@@H](/N=C/c1ccc([N+](=O)[O-])cc1)C(C)C , which is > 100 µM (inactive)

Kindly note the recorded GI50 for COc1ccc(/N=c2/[nH]c(N)c(C(=O)c3ccc(OC)cc3)s2)cc1 , which is 17.3 µM (inactive)

Kindly note the recorded GI50 for CCC1(c2ccc(N3C(=O)c4cc(OC)c(OC)cc4C3=O)cc2)CCC(=O)NC1=O (stereo not given) , which is > 10 µM (inactive)

Kindly note the recorded GI50 for Cc1ccc(C2=Nn3c(nc4sc5c(c4c3=O)CCCC5)SC2)cc1 , which is > 100 µM (inactive)

Kindly note the recorded GI50 for O=C1/C(=C\c2cccc(Oc3ccccc3)c2)SC(c2ccccc2)N1c1ccccc1 (stereo not given) , which is 57 µM (inactive)

Kindly note the recorded GI50 for O=C(CC/C(CC(=O)c1ccc(Cl)cc1)=N/O)Nc1ccc(Cl)c(Cl)c1 , which is 10.3 µM (inactive)

====

I'd appreciate it if you could supply GI50 values for the items below.
tested on: MDA-MB-231; assay: NCI tumour cell line growth inhibition, 48 h
Calls of active or inactive are those of the source. Cut-off read from the data, not from the text of the source: active = GI50 up to about 1.1 µM and inactive = higher.

Kindly note the recorded GI50 for CC1(c2ccc(Cl)cc2)CC(c2ccc(Cl)cc2)=C(C#N)C(=C(C#N)C#N)N1 (stereo not given) , which is 22.5 µM (inactive)

Kindly note the recorded GI50 for Cn1c2ccccc2n2c3nc4ccccc4nc3c(C#N)c12 , which is > 97.1 µM (inactive)

Kindly note the recorded GI50 for COc1ccc(-c2oc3c(OC)c(OC)c(OC)c(OC)c3c(=O)c2OC)cc1OC [3,5,6,7,8,3',4'-HEPTAMETHOXYFLAVONE] , which is 59.7 µM (inactive)

Kindly note the recorded GI50 for Cc1ncc(-c2nnnn2-c2ccccc2)c(C(=O)O)n1 , which is > 100 µM (inactive)

Kindly note the recorded GI50 for CCCCC(=O)N/S(=N/C(=O)c1ccccc1)C(Cl)(Cl)Cl (stereo not given) , which is > 100 µM (inactive)

Kindly note the recorded GI50 for CC(=O)NN/C=N/C(C#N)=C(\N)C#N , which is > 100 µM (inactive)

Kindly note the recorded GI50 for O=C1Oc2ccccc2C(=O)/C1=C/N1C(=O)N/C(=C\c2ccccc2O)C1=O , which is 36.9 µM (inactive)

Kindly note the recorded GI50 for O=C(/C=C/c1ccccc1Br)c1ccccc1 , which is 13.2 µM (inactive)

Kindly note the recorded GI50 for COc1ccc(/C=C/[N+](=O)[O-])cc1 , which is 19.4 µM (inactive)

Kindly note the recorded GI50 for COC(=O)[C@H]1NC(=O)CCSSC1(C)C , which is > 100 µM (inactive)

Kindly note the recorded GI50 for CC1(C)CC(=O)C2=C(C1)NC1=C(C2)C(=O)CC(C)(C)C1 , which is > 100 µM (inactive)

Kindly note the recorded GI50 for COc1cc(/C=C2\N=C(c3ccccc3)N(c3nc4c(OC)ccc(OC)c4s3)C2=O)cc(OC)c1OC , which is > 100 µM (inactive)

Kindly note the recorded GI50 for Cc1cn(Cc2cn(CC3OC(n4cc(C)c(=O)[nH]c4=O)CC3O)nn2)c(=O)[nH]c1=O (stereo not given) , which is > 100 µM (inactive)

Kindly note the recorded GI50 for FC1(F)SC2CCCCCCCCCCC2C1(F)F (stereo not given) , which is 22.8 µM (inactive)

Kindly note the recorded GI50 for Cc1ccc(NC2=CC(=O)C(NO)c3ccccc32)cc1 (stereo not given) , which is 2.21 µM (inactive)

Kindly note the recorded GI50 for O=C(/C=C\c1ccccc1)Oc1ccc(/C=C2\CCC/C(=C\c3ccc(OC(=O)/C=C\c4ccccc4)cc3)C2=O)cc1 , which is > 100 µM (inactive)

Kindly note the recorded GI50 for N#Cc1c(-c2ccccc2)c(/C=N/c2cccc(C(F)(F)F)c2)c(=O)n2c1[nH]c1ccccc12 , which is 42.3 µM (inactive)

Kindly note the recorded GI50 for CCOC(=O)C(C#N)C1=CC(=O)C(=O)c2ccc(O)cc21 (stereo not given) , which is 32.1 µM (inactive)

Kindly note the recorded GI50 for Fc1ccc(/N=N/N2CCCC2)cc1 , which is > 100 µM (inactive)

Kindly note the recorded GI50 for Cc1nc2sc3ccccc3n2c(=O)c1/N=N/c1ccc(Br)cc1 , which is 60.1 µM (inactive)

Kindly note the recorded GI50 for c1ccc(C[N+]23CN4CN(CN(C4)C2)C3)cc1 , which is 20.1 µM (inactive)

Kindly note the recorded GI50 for COC[C@@H](/N=C/c1ccc([N+](=O)[O-])cc1)C(C)C , which is 3.24 µM (inactive)

Kindly note the recorded GI50 for COc1ccc(N2C(=O)c3cccnc3S2(=O)=O)cc1 , which is > 100 µM (inactive)

Kindly note the recorded GI50 for CCOc1cc(C(c2c(O)c3ccccc3oc2=O)c2c(O)c3ccccc3oc2=O)ccc1OC , which is 16 µM (inactive)

Kindly note the recorded GI50 for CCOC(=O)C(C(=O)OCC)C(NC(=O)Nc1cc(C(F)(F)F)ccc1OC)(C(F)(F)F)C(F)(F)F , which is 17.4 µM (inactive)

Kindly note the recorded GI50 for CCC/C=C/C=C/C(=O)OC1/C(=C/C(=O)OC)CC2CC(C(C)O)OC(=O)CC(O)CC3CC(OC(C)=O)C(C)(C)C(O)(CC4C/C(=C/C(=O)OC)CC(/C=C/C(C)(C)C1(O)O2)O4)O3 (stereo not given) , which is 6.22 µM (inactive)

Kindly note the recorded GI50 for NC1=NC(NCC2(CO)CCC2)=CC(OCC2(CO)CCC2)N1 (stereo not given) , which is > 100 µM (inactive)

Kindly note the recorded GI50 for O=C(O)CN1CCN(CC(=O)O)CCN(CC(=O)O)CC1 , which is > 31.9 µM (inactive)

Kindly note the recorded GI50 for S=C(N/N=C\C=N/NC(=S)N1CCCCCC1)N1CCCCCC1 , which is > 31.5 µM (inactive)

Kindly note the recorded GI50 for CCC1(c2ccc(N3C(=O)c4cc(OC)c(OC)cc4C3=O)cc2)CCC(=O)NC1=O (stereo not given) , which is > 10 µM (inactive)

Kindly note the recorded GI50 for N/C(=N\c1ccc(Cl)cc1)NS(=O)(=O)c1cc(Cl)c(Oc2ccc([N+](=O)[O-])cc2Cl)c(Cl)c1 , which is 16.6 µM (inactive)

Kindly note the recorded GI50 for N#CC(C#N)[C@@H]1CCC=C(Sc2ccccc2)[C@H]1Sc1ccccc1 , which is 4.05 µM (inactive)

Kindly note the recorded GI50 for CCC1OC2C(CC=C(C)C)=C3OC(C)(O)C(C)(CC)C(OC(=O)c4ccccc4)C3=C3OC(=O)C=C1C32 (stereo not given) , which is 22.4 µM (inactive)

Kindly note the recorded GI50 for CC(=O)OCCC[C@@H]1C(=C(C)C)CCC2[C@@]1(C)CC[C@@]1(C)C[C@](C)(CCC=C(C)C)CC[C@]21C (stereo not given in full) , which is > 100 µM (inactive)

Kindly note the recorded GI50 for Cc1c(C(=O)N2CCN(c3ccc([N+](=O)[O-])cc3)CC2)[n+]([O-])c2cc(Cl)c(Cl)cc2[n+]1[O-] , which is 21.2 µM (inactive)

Kindly note the recorded GI50 for CC(C)CCc1n[nH]c(=O)n1/N=C\c1ccccc1 , which is > 100 µM (inactive)

Kindly note the recorded GI50 for CC(C)CC(NP(=O)(O)OC1OC(C)C(O)C(O)C1O)C(=O)NC(Cc1c[nH]c2ccccc12)C(=O)O (stereo not given) , which is > 100 µM (inactive)

Kindly note the recorded GI50 for CC1=NNC(=O)C1C1CC(c2c[nH]c3ccccc23)=NN(C(N)=O)C1=O (stereo not given) , which is > 100 µM (inactive)

Kindly note the recorded GI50 for COC(=O)[C@H](Cc1ccccc1)NC(=O)c1ccc(CNC(=O)/C=C/c2ccc(-c3ccccc3)cc2)cc1 , which is 22.1 µM (inactive)

Kindly note the recorded GI50 for CC(C)(C)OC(=O)NC(Cc1c[nH]cn1)C(=O)N1CCCC1C(N)=O (stereo not given) , which is > 100 µM (inactive)
